system: Aphis gossypii; test: Aphis gossypii test (Example E), cotton leaves sprayed; format: in vivo; settings: active compound 0.16 ppm; with penetrant and AS (in each case 1000 ppm); 6 days
Consider the following molecules and their measured Kill rate after 6 days, With penetrant and AS readings.
Assay metric: Kill rate after 6 days, With penetrant and AS (%)

INSERT INTO measurements (molecule, display_unit, number) VALUES
  ('CN(Cc1ccc(Cl)nc1)C1=CC(=O)OC1', '%', 75),
  ('O=C1C=C(NCc2ccc(Cl)nc2)CO1', '%', 50),
  ('N#C/N=C1\SCCN1Cc1ccc(Cl)nc1 [Ia-3, thiacloprid, reference compound]', '%', 70),
  ('CN1COCN(Cc2cnc(Cl)s2)/C1=N/[N+](=O)[O-] [Ia-1, thiamethoxam, reference compound]', '%', 40),
  ('O=C/C(=C1/NCCN1Cc1ccc(Cl)nc1)[N+](=O)[O-]', '%', 95);

----------
system: Aphis gossypii; assay: Aphis gossypii test (Example E), cotton leaves sprayed; assay type: in vivo; conditions: Aphis gossypii, 144 h, read-out: Kill rate after 6 days, Without penetrant and AS
Readings of pest or weed control at 0.8 ppm for the listed compounds
Assay metric: pest or weed control at 0.8 ppm

INSERT INTO measurements (compound, result) VALUES
  ('CN/C(=C\[N+](=O)[O-])C(C)c1ccc(Cl)nc1 (stereo not drawn)', '0%'),
  ('CCN(Cc1ccc(Cl)nc1)/C(=C/[N+](=O)[O-])NC [Ia-6, nitenpyram, reference compound]', '25%'),
  ('C/N=C(\C(=C/N(C)C)[N+](=O)[O-])N(C)Cc1ccc(Cl)nc1', '5%'),
  ('CN1CN(C)/C(=N\[N+](=O)[O-])N(Cc2cnc(Cl)s2)C1', '80%'),
  ('O=[N+]([O-])/N=C1\NCCN1Cc1cnc(Cl)s1 [Ia-8, imidaclothiz, reference compound]', '65%'),
  ('CN/C(=N\[N+](=O)[O-])NCC1CCOC1 (stereo not drawn) [Ia-4, dinotefuran, reference compound]', '0%');

----------
tested on: Aphis gossypii; assay: Aphis gossypii test (Example E), cotton leaves sprayed; assay type: in vivo; conditions: active compound 0.8 ppm; with penetrant and AS (in each case 1000 ppm); 6 days
Assay metric: Kill rate after 6 days, With penetrant and AS

INSERT INTO measurements (molecule, result) VALUES
  ('CS/C(=N\[N+](=O)[O-])NCCN(Cc1ccc(Cl)nc1)CC1CC1', '45%'),
  ('CCN(Cc1ccc(Cl)nc1)/C(=C/[N+](=O)[O-])NC [Ia-6, nitenpyram, reference compound]', '99%'),
  ('CN/C(=C\[N+](=O)[O-])C(C)c1ccc(Cl)nc1 (stereo not shown)', '55%'),
  ('CN1CN(C)/C(=N\[N+](=O)[O-])N(Cc2cnc(Cl)s2)C1', '100%'),
  ('C#CCN(CCN/C(=C/[N+](=O)[O-])OC)Cc1ccc(Cl)nc1', '90%'),
  ('C/N=C(\C(=C/N(C)C)[N+](=O)[O-])N(C)Cc1ccc(Cl)nc1', '60%'),
  ('C#CCN(CCN/C(=N/[N+](=O)[O-])OC)Cc1ccc(Cl)nc1', '55%'),
  ('C=CCN(CCN/C(=C/[N+](=O)[O-])SC)Cc1ccc(Cl)nc1', '95%'),
  ('O=[N+]([O-])/N=C1\NCCN1Cc1cnc(Cl)s1 [Ia-8, imidaclothiz, reference compound]', '95%'),
  ('CN/C(=N\[N+](=O)[O-])NCC1CCOC1 (stereo not shown) [Ia-4, dinotefuran, reference compound]', '35%');
